# assay-target: Purine nucleoside phosphorylase (Homo sapiens, UniProt P00491)
# Sequence (P00491 whole entry): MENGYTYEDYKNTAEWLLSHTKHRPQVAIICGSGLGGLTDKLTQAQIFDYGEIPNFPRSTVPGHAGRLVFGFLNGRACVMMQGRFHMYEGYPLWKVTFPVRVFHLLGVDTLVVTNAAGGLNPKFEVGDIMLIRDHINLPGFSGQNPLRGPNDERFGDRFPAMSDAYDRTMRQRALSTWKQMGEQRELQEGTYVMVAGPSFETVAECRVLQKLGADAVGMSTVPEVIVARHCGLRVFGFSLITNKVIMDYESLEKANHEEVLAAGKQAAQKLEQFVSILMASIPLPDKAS
# procedure-text: Competitive inhibition of PNP in human DoHH2 cells using MSEG as substrate by Dixon-plot analysis
# Assay type: cell-based
experimental-endpoint: Ki (nM)

(1) Nc1nc2c(ncn2[C@H]2CCN(C(=O)P(=O)(O)O)C2)c(=O)[nH]1
(2) Nc1nc2c(ncn2[C@@H]2CN(C(=O)P(=O)(O)O)C[C@@H]2O)c(=O)[nH]1
Which item exceeds the other in Ki, 1 or 2 ? Write down the label of the entry you select.
1

---

# assay-target: Purine nucleoside phosphorylase (Homo sapiens, UniProt P00491)
# procedure-text: Competitive inhibition of PNP in human K562 cells using MSEG as substrate by Dixon-plot analysis
# Type: cell-based
pKi: −log10 of the molar value.
experimental-endpoint: pKi

(1) Nc1nc2c(ncn2[C@H]2CCN(C(=O)P(=O)(O)O)C2)c(=O)[nH]1
(2) Nc1nc2c(ncn2[C@@H]2CN(C(=O)P(=O)(O)O)C[C@@H]2O)c(=O)[nH]1
Would you kindly point out which of 1 and 2 has the smaller pKi figure? Write down the label of the entry you select.
1

---

# assay-target: Purine nucleoside phosphorylase (Homo sapiens, UniProt P00491)
# procedure-text: Competitive inhibition of PNP in human OPM2 cells using MSEG as substrate by Dixon-plot analysis
# Assay type: cell-based, OPM-2
experimental-endpoint: Ki (nM)

(a) Nc1nc2c(ncn2[C@@H]2CN(C(=O)P(=O)(O)O)C[C@@H]2O)c(=O)[nH]1
(b) Nc1nc2c(ncn2[C@H]2CCN(C(=O)P(=O)(O)O)C2)c(=O)[nH]1
Would you kindly point out which of a and b has the smaller Ki figure? Write down the label of the entry you select.
a
(a: 16 nM, b: 78 nM)

---

# assay-target: Purine nucleoside phosphorylase (Homo sapiens)
# procedure-text: Competitive inhibition of human recombinant PNP using MSEG as substrate by Dixon-plot analysis
experimental-endpoint: Ki (nM)

(A) Nc1nc2c(ncn2[C@H]2CCN(C(=O)P(=O)(O)O)C2)c(=O)[nH]1
(B) Nc1nc2c(ncn2[C@@H]2CN(C(=O)P(=O)(O)O)C[C@@H]2O)c(=O)[nH]1
Which item exceeds the other in Ki, A or B ? Write down the label of the entry you select.
A
(A: 25 nM, B: 7 nM)

---

# assay-target: Purine nucleoside phosphorylase (Homo sapiens)
# Sequence (P00491 whole entry): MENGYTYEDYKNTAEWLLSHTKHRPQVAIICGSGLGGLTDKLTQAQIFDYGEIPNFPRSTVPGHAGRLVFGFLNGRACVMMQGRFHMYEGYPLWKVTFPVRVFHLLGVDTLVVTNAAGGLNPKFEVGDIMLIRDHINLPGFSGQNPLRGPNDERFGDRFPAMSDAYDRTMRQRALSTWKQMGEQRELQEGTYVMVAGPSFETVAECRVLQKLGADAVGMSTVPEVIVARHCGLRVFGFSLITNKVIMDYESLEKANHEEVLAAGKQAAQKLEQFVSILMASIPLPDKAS
# procedure-text: Competitive inhibition of PNP in human PBMC using MSEG as substrate by Dixon-plot analysis
pKi: −log10 of the molar value.
experimental-endpoint: pKi

(P) Nc1nc2c(ncn2[C@@H]2CN(C(=O)P(=O)(O)O)C[C@@H]2O)c(=O)[nH]1
(Q) Nc1nc2c(ncn2[C@H]2CCN(C(=O)P(=O)(O)O)C2)c(=O)[nH]1
Would you kindly point out which of P and Q has the smaller pKi figure? Write down the label of the entry you select.
Q
(Q: 7.70, P: 8.00)
